Data provenance: PubChem BioAssay (NCI)

Test system: SK-MEL-2 melanoma
test.name: NCI-60 one-dose screen, 48 h
assay.context: 10 µM
The panel holds about 83,000 compounds, 20% with a hit somewhere; the sample as a whole holds those more often. Calls of active or inactive are those of the source. How the source made its calls: active means growth percent below 10; inactive means the rest.
Outcome (select one): 1.0 = active, 0.0 = inactive

Challenge: Hey, what did the test say about c1ccc(CNc2nc(Nc3ccc(-c4nc5ccccc5[nH]4)cc3)c3cn[nH]c3n2)cc1 ?
Response given: 1.0

Challenge: Which outcome was assigned to CN1/C(=C\C(I)C(I)C2=[N+](C)c3ccccc3C2(C)C)C(C)(C)c2ccccc21 (stereo unspecified) in this test?
Response given: 1.0

Challenge: Any idea what this test logged for CCCN(CCC)CCCNC(=O)c1cc2c(-c3ccc(OC)c(OC)c3)nn(C)c2s1 ?
Response given: 1.0

Challenge: How was N#Cc1ncc(-c2cc(F)ccc2F)c(NC2CCCCCC2)n1 classified in this test?
Response given: 0.0
